# TARGET OF ASSAY: T1, PUF4 RNA-binding domain (Saccharomyces cerevisiae, UniProt P25339 537-888)
# T1 sequence: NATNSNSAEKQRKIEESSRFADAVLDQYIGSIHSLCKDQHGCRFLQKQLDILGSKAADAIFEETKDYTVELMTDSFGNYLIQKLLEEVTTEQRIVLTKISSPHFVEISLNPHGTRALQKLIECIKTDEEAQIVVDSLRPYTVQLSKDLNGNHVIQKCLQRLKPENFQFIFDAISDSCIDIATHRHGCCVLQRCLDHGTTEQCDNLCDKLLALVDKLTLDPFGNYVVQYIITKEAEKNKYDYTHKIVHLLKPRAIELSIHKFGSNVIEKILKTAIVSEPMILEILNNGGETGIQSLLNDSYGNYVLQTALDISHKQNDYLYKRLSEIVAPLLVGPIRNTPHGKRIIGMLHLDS
# EXPERIMENT: Mg; RNA-MaP; 20 mM Na-HEPES pH 7.4, 30 mM KOAc, 0.75 mM MgCl2, 0.1% Tween-20, 5% glycerol, 0.1 mg/mL BSA, 2 mM DTT; 25 C; 0.0125-409.6 nM protein
# STUDY CONDITIONS: tags: N-His6-TEV cleaved; C-SNAP kept, Cy3B-labelled; label: tethered on chip by stalled RNA polymerase
Here, each record is paired with measured pKd data.
Field pKd (float): negative decimal logarithm of the concentration in molar.

Consider the worked cases shown below.
Ie_S2_P5E.1_K5.1_C5.1_H5.1_[+1CTCTC]_A5.1_F5.1_T5.1 (ssRNA) RNA: UUUGAUUAAUAUGAUAUCGUUCUUUCUUCUCUCGUAUUAUUAUUCUUUCUCGAUAUCAUAUUAAUCUUU: 6.69
UCUCUUUAUAUAUAUAUGUCUCUU (ssRNA) [Id_ii_S1_P3E.3_K3.2_C3.2_[C-2T]_[T-1A]_H3.2_A3.1_F3.1_T3.2_[A10G]]: 6.37
UCUCUUUGUAUAAGUCUCUU (ssRNA) [Ib_S1_P3E.1_K3.1_C3.1_H3.1_A3.1_F3.1_[T7A]_[A8G]_T3.1]: 6.30
Ic_S4_P4E.1_K4.1_C4.1_H4.1_A4.1_[A6G]_[T7C]_F4.1_[T8G]_[A9C]_T4.1 (ssRNA) RNA: UUUGACAACUGAUCGUUCUUUCUUGUAUGCGCUUCUUUCUCGAUCAGUUGUCUUU: 6.00
UCUCUUUGUAUCCUCUAUUAUCUCUU (ssRNA) [Ie_S1_P5E.1_K5.1_C5.1_H5.1_A5.1_[+5CCTC]_F5.1_T5.1]: 7.62

So, UCUCUUUGUACCGCUUCUCUU (ssRNA) [Ic_S1_P4E.1_K4.1_C4.1_H4.1_A4.1_[T5C]_[A6C]_[T7G]_F4.1_[T8C]_[A9T]_T4.1] ? Its pKd was 6.13

Data point: Ic_S2_P4E.1_K4.1_C4.1_H4.1_A4.1_[T7G]_F4.1_[A9G]_T4.1 (ssRNA) RNA: UUUGAUUAAUAUGAUAUCGUUCUUUCUUGUAUAGUGUUCUUUCUCGAUAUCAUAUUAAUCUUU ; pKd = 8.17

Looking up Id_ii_S2_P5E.3_K5.2_C5.2_[C-2T]_[T-1A]_H5.2_A5.1_F5.1_T5.2_[T11C] (ssRNA) RNA: UUUGAUUAAUAUGAUAUCGUUCUUUCUUAUAUAUUAUUACAUUCUUUCUCGAUAUCAUAUUAAUCUUU , I found its pKd recorded as 7.84

The measured pKd associated with Ic_S4_P5E.1_K5.1_C5.1_H5.1_A5.1_[T6A]_[A7T]_F5.1_[T8A]_[T9A]_[A10T]_T5.1 (ssRNA) RNA: UUUGACAACUGAUCGUUCUUUCUUGUAUAUAAUUUCUUUCUCGAUCAGUUGUCUUU reads 8.62

So, Ic_S4_P4E.1_K4.1_C4.1_H4.1_A4.1_[T5A]_[A6T]_[T7C]_F4.1_[A9T]_T4.1 (ssRNA) RNA: UUUGACAACUGAUCGUUCUUUCUUGUAAUCUUUUCUUUCUCGAUCAGUUGUCUUU ? Its pKd was 7.46
